Tested on: HepG2-TP53BP1-CLTA
Test: phenotypically active (imaging signature differs from DMSO and reproducible) at any of 0.3-9 uM (binary (1 = active, 0 = inactive)); higher = active
Conditions: treatment time: 24 h
Structures can show the parent of a compound that is named as a salt.
Pick one and only one: true (1) (active), false (0) (inactive)

Here's what some known entries look like.
[
  {
    "Compound": "C=CCc1ccc(O)c(-c2ccc(O)c(CC=C)c2)c1",
    "Label Value": "false (0)"
  },
  {
    "Compound": "NS(=O)(=O)c1cc2c(cc1C(F)(F)F)NC(Cc1ccccc1)NS2(=O)=O (stereo not drawn) [bendroflumethiazide]",
    "Label Value": "false (0)"
  },
  {
    "Compound": "O=c1cc(N2CCOCC2)oc2c(-c3cccc4c3sc3ccccc34)cccc12",
    "Label Value": "true (1)"
  },
  {
    "Compound": "CN(C)CC(=O)Nc1ccc2[nH]c(=O)c3ccccc3c2c1 [PJ 34 hydrochloride]",
    "Label Value": "true (1)"
  }
]

Test call, this compound: C[C@]1(OC(=O)/C=C/c2ccccc2)C[C@@H](O)[C@]2(O)C=CO[C@@H](O[C@@H]3O[C@H](CO)[C@@H](O)[C@H](O)[C@H]3O)[C@@H]21 [Harpagoside]
false (0)

Test call, this compound: O=C(O)/C(Cc1ccccc1[N+](=O)[O-])=N\Nc1nc(-c2ccc(Cl)c(Cl)c2)cs1
false (0)

Test call, this compound: Clc1cccc(Nc2nnc(-c3ccccc3)c3ccccc23)c1
false (0)

Test call, this compound: Nc1cc(-c2ccncc2)c[nH]c1=O
false (0)

Test call, this compound: CCN(CC)CCCC(C)Nc1ccnc2cc(Cl)ccc12 (stereo not drawn)
true (1)

Test call, this compound: Nc1ccc(-c2ccc3ncc4ccc(=O)n(-c5cccc(C(F)(F)F)c5)c4c3c2)cn1
true (1)

Test call, this compound: CCCOc1ccn2c(C(C)=O)cc(-c3ccccc3S(C)(=O)=O)c2c1
false (0)

Test call, this compound: O=C([C@H](Cc1cccc(C(F)(F)F)c1)NS(=O)(=O)c1cc(F)c2c(c1)CCNC2)N1CCCC1 [(S)-PFI 2 hydrochloride]
false (0)

---

Test system: WPMY1-GM130-SQSTM1
Experiment: phenotypically active (imaging signature differs from DMSO and reproducible) at any of 0.3-9 uM (binary (1 = active, 0 = inactive)); higher = active
Settings: treatment time: 24 h
Pick one and only one: 1 (active), 0 (inactive)

Here's what some known entries look like.
[
  {
    "Compound": "COc1cc(C)c(/C=C/C(C)=C/C=C/C(C)=C/C(=O)O)c(C)c1C",
    "Label Value": 1
  },
  {
    "Compound": "O=C(O)CCN(O)C(=O)CCCCCCCCC1CC1",
    "Label Value": 0
  },
  {
    "Compound": "O=C(O)c1c(Sc2ccccc2)c2cc(Cl)ccc2n1Cc1ccc(Cl)cc1",
    "Label Value": 0
  }
]

Okay, now this compound:
Test call, this compound: Nc1ncnc2c1ncn2[C@@H]1O[C@H](CO)[C@@H](O)[C@H]1O
0

---

Test system: HepG2-CANX-COX4
Test: phenotypically active (imaging signature differs from DMSO and reproducible) at any of 0.3-9 uM (binary (1 = active, 0 = inactive)); higher = active
Settings: treatment time: 24 h
Pick one and only one: active, inactive

Here's what some known entries look like.
[
  {
    "Compound": "COc1cc2ncnc(Nc3ccc(O)c(Br)c3)c2cc1OC",
    "Assayed Target": "HepG2-CANX-COX4",
    "Label Value": "active"
  },
  {
    "Compound": "O=C1CC(c2ccc(O)cc2)Oc2cc(O)cc(O)c21 (configuration not stated)",
    "Assayed Target": "HepG2-CANX-COX4",
    "Label Value": "inactive"
  },
  {
    "Compound": "COc1c2c(cc3oc(CO)cc(=O)c13)O[C@@H](C(C)(C)O)C2",
    "Assayed Target": "HepG2-CANX-COX4",
    "Label Value": "inactive"
  },
  {
    "Compound": "O=C(NC(NC(=S)Nc1ccc(F)c([N+](=O)[O-])c1)C(Cl)(Cl)Cl)C(c1ccccc1)c1ccccc1 (configuration not stated)",
    "Assayed Target": "HepG2-CANX-COX4",
    "Label Value": "active"
  },
  {
    "Compound": "Cc1ccc(O)c([C@H](CCN(C(C)C)C(C)C)c2ccccc2)c1 [Tolterodine L-tartrate]",
    "Assayed Target": "HepG2-CANX-COX4",
    "Label Value": "inactive"
  }
]

Okay, now this compound:
Test call, this compound: C=C1C[C@@]23CCC4[C@@](C)(CCC[C@@]4(C)C(=O)O[C@@H]4O[C@H](CO)C(O)[C@H](O)C4O)C2CC[C@@]1(O[C@H]1O[C@H](CO)C(O)[C@H](O)[C@H]1O[C@@H]1O[C@H](CO)[C@@H](O)[C@H](O)[C@H]1O)C3 (some centres not stated) [Stevioside]
inactive
